assay.system: MINK1/MAP4K6 (Homo sapiens)
Sequence (Q8N4C8 whole entry): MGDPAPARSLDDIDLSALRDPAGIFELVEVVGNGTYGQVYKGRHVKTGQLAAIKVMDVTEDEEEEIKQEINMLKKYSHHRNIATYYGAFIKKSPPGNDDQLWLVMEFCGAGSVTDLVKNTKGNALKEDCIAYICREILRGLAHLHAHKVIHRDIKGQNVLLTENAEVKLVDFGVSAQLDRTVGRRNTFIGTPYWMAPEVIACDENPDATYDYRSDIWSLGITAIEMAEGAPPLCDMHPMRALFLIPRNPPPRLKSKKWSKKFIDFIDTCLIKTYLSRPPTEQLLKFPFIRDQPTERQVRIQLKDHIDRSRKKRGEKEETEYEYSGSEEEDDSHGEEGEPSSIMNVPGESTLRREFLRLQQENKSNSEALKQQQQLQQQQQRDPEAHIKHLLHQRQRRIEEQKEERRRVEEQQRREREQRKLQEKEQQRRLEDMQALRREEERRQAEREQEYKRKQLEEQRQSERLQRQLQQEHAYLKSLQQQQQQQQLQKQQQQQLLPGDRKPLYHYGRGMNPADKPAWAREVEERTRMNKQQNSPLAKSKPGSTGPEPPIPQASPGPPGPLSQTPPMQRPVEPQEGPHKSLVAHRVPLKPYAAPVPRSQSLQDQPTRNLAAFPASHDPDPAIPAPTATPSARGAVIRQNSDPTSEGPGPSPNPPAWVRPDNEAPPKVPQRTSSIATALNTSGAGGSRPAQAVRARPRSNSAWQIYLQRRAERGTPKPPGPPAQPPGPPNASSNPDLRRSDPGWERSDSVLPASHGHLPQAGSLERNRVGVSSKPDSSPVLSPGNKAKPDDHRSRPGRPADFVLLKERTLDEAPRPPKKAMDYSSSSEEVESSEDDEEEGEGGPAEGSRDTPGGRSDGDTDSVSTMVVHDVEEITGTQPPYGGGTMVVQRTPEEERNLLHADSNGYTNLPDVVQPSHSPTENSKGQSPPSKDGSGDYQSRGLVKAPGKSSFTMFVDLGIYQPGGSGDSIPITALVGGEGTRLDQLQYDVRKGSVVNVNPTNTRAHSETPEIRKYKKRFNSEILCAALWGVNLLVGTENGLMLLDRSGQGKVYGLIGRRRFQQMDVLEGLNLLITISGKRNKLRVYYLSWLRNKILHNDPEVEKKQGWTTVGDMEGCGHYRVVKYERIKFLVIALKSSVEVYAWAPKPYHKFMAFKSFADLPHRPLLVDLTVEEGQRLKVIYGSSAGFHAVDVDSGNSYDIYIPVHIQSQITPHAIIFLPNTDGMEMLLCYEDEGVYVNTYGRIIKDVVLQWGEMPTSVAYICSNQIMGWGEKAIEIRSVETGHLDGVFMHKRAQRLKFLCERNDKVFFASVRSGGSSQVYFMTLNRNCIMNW
experimental.protocol: Kinase selectivity panel, MINK1/MAP4K6
Format: biochemical
experimental.context: read-out: pIC50 MINK1/MAP4K6 (converted)
# IC50 per entry
Enter your answer as a number in nM; do not include the unit.

Before answering, review these 5 worked examples.
{"columns": ["compound", "IC50 / nM"],
 "data": [
  ["CC(C)(O)CCOc1ccc(-c2cn(-c3cccnc3)c3nc[nH]c(=O)c23)cc1", 63.1],
  ["O=c1[nH]cnc2c1c(-c1ccc(OCC(O)CN3CCOCC3)cc1)cn2-c1cccnc1 (stereo not drawn)", 31.6],
  ["O=c1[nH]cnc2c1c(-c1cnn(CCO)c1)cn2-c1ccccc1", 10],
  ["O=c1[nH]cnc2c1c(-c1cnn(C3COC3)c1)cn2-c1ccccc1", 63.1],
  ["COCCOc1ccc(-c2cn(-c3ccncc3)c3nc[nH]c(=O)c23)cc1", 31.6]
]}

Task item: # lookup: IC50 of COCCOc1ccc(-c2cn(-c3cccc(F)c3)c3nc[nH]c(=O)c23)cn1
Reply: 12.6

###

assay.system: KHS/MAP4K5 (Homo sapiens, UniProt Q9Y4K4)
Sequence (Q9Y4K4 whole entry): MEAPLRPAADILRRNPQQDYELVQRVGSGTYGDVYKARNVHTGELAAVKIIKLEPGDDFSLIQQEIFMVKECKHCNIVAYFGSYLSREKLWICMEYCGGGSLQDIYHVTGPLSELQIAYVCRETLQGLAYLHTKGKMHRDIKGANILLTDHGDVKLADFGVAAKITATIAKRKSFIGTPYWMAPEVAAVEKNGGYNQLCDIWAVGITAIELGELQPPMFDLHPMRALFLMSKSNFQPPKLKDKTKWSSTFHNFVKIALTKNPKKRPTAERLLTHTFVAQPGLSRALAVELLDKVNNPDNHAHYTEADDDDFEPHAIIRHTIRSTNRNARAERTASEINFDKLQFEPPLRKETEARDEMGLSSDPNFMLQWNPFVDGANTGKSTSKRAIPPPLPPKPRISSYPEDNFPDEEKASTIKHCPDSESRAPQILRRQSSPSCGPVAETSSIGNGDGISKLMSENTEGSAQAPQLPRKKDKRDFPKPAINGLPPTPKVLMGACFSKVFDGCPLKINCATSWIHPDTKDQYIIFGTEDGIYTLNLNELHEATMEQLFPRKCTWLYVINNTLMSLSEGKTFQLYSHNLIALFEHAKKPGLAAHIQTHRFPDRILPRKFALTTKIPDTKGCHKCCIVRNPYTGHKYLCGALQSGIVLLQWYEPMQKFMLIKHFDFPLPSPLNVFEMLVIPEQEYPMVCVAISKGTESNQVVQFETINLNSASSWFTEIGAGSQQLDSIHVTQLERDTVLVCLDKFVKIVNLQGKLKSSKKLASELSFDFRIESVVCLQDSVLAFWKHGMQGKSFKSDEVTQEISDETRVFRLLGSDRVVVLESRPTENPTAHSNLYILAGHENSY
experimental.protocol: Kinase selectivity panel, KHS/MAP4K5
Format: biochemical
experimental.context: in favour of MAP4K4

{"columns": ["chemical.smiles", "fold selectivity MAP4K4 over KHS/MAP4K5"],
 "data": [
  ["COCCOc1ccc(-c2cn(-c3cccnc3)c3nc[nH]c(=O)c23)cc1", "(63) fold"],
  ["COCCOc1ccc(-c2cn(-c3ccncc3)c3nc[nH]c(=O)c23)cc1", "(63) fold"]
]}

###

assay.system: MLK1/MAP3K9 (Homo sapiens, UniProt P80192)
Sequence (P80192 whole entry): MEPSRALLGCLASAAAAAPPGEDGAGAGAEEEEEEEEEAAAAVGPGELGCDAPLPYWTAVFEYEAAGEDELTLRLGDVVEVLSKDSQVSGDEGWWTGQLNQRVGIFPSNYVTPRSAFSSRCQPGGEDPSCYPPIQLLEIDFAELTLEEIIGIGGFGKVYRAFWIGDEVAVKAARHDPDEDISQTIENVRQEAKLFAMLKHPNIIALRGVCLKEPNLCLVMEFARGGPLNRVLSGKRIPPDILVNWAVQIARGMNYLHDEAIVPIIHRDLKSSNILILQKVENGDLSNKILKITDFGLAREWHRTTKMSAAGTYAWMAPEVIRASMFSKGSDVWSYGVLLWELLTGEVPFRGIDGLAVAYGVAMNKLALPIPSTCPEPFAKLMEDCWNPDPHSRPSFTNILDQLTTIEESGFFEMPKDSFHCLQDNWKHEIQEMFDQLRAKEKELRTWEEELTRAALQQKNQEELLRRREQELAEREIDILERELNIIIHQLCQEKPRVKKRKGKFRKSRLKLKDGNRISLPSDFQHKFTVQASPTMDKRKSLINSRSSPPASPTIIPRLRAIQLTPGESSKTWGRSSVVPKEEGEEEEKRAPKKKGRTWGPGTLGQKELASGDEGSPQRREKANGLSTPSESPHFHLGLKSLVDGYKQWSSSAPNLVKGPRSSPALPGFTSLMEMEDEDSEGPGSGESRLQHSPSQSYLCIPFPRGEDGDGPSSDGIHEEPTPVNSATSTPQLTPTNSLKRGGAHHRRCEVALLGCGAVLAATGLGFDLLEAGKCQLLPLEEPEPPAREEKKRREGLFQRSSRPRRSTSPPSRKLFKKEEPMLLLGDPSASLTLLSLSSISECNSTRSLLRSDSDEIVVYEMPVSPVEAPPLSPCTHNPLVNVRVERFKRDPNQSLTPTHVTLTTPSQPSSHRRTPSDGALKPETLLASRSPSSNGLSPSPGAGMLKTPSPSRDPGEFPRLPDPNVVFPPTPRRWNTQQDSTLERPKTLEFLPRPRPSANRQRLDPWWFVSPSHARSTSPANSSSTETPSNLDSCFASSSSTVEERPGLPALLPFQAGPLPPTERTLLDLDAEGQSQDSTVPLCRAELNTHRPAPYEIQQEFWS
experimental.protocol: Kinase selectivity panel, MLK1/MAP3K9
Assay type: biochemical
experimental.context: read-out: pIC50 MLK1/MAP3K9 (converted)
Please note: IC50 exactly at 3000 nM is NO. Only values below 3000 nM get YES.

{"columns": ["molecule", "qualitative.label"],
 "data": [
  ["COCCOc1ccc(-c2cn(-c3ccncc3)c3nc[nH]c(=O)c23)cc1", "NO"],
  ["COCCOc1ccc(-c2cn(-c3cccc(F)c3)c3nc[nH]c(=O)c23)cn1", "YES"],
  ["CC(C)(O)CCOc1ccc(-c2cn(-c3cccnc3)c3nc[nH]c(=O)c23)cc1", "YES"],
  ["O=c1[nH]cnc2c1c(-c1cnn(CCO)c1)cn2-c1ccccc1", "YES"],
  ["O=c1[nH]cnc2c1c(-c1ccc(OCC(O)CN3CCOCC3)cc1)cn2-c1cccnc1 (stereo not drawn)", "NO"]
]}

Shifting focus to the molecule that follows.
Task item: IC50 under 3000 nM? Item: O=c1[nH]cnc2c1c(-c1cnn(C3COC3)c1)cn2-c1ccccc1
Reply: YES

###

assay.system: human MAP4K4 kinase domain (Homo sapiens)
Construct: 0.5 nM human MAP4K4 kinase domain (Invitrogen); purchased Invitrogen
experimental.protocol: MAP4K4 kinase activity, CisBio HTRF Transcreener ADP assay
Format: biochemical
experimental.context: IC50 category; ATP at Km (10 μM), 0.5 nM kinase domain, 2 h; read-out: MAP4K4
# IC50 per entry

Task item: # lookup: IC50 of CC(C)(O)CCOc1ccc(-c2cn(-c3cccnc3)c3nc[nH]c(=O)c23)cc1
Reply: ≤ 100 nM

Task item: Check O=c1[nH]cnc2c1c(-c1ccncc1F)cn2-c1ccccc1 too.
Reply: 100 to 1000 nM

Task item: Check CC(C)(O)COc1ccc(-c2cn(-c3ccccc3)c3nc[nH]c(=O)c23)cn1 too.
Reply: ≤ 100 nM

Task item: Check Cn1ccc(-c2cn(-c3ccccc3)c3c(=O)[nH]cnc23)n1 too.
Reply: > 1000 nM

Task item: Check O=c1[nH]cnc2c1c(-c1cnn(C3CNC3)c1)cn2-c1ccccc1 too.
Reply: 100 to 1000 nM

Task item: Check O=c1[nH]cnc2c1c(-c1cnc(N3CC(O)C3)nc1)cn2-c1cccnc1 too.
Reply: > 1000 nM

Task item: Check COc1ccc(-c2cn(-c3ccccc3)c3nc[nH]c(=O)c23)nc1 too.
Reply: 100 to 1000 nM

Task item: Check O=c1[nH]cnc2c(-c3ccc4[nH]cnc4c3)cn(-c3ccccc3)c12 too.
Reply: 100 to 1000 nM

Task item: Check O=c1cc(-c2cn(-c3ccccc3)c3c(=O)[nH]cnc23)cc[nH]1 too.
Reply: 100 to 1000 nM

###

assay.system: NUAK1 (Homo sapiens, UniProt O60285)
Sequence (O60285 whole entry, species assumed): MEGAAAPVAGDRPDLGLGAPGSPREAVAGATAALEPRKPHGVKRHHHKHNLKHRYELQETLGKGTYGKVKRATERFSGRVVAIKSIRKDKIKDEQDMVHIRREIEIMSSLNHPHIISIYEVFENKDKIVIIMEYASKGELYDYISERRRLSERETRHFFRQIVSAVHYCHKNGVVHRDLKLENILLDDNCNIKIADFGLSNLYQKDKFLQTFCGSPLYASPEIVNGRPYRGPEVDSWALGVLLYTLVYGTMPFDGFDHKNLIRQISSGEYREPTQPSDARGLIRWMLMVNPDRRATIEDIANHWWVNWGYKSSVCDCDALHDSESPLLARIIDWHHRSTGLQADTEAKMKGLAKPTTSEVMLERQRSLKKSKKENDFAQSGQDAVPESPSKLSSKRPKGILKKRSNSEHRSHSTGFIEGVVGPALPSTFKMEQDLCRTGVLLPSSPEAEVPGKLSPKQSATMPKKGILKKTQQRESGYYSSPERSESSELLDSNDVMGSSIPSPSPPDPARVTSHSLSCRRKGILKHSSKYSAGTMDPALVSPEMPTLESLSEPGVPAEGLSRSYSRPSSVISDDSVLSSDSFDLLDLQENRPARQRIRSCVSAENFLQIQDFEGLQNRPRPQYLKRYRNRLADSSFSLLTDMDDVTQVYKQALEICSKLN
experimental.protocol: Kinase selectivity panel, NUAK1
Type: biochemical
experimental.context: in favour of MAP4K4

{"columns": ["molecule", "fold selectivity MAP4K4 over NUAK1"],
 "data": [
  ["CC(C)(O)CCOc1ccc(-c2cn(-c3cccnc3)c3nc[nH]c(=O)c23)cc1 [Ex-78]", "(16) fold"],
  ["COCCOc1ccc(-c2cn(-c3cccc(F)c3)c3nc[nH]c(=O)c23)cn1 [Ex-29]", "(16) fold"]
]}

###

# IC50 per entry
assay.system: human MAP4K4 kinase domain (Homo sapiens, UniProt O95819)
Construct: 0.5 nM human MAP4K4 kinase domain (Invitrogen); purchased Invitrogen
Sequence (O95819 25-289 limits assumed): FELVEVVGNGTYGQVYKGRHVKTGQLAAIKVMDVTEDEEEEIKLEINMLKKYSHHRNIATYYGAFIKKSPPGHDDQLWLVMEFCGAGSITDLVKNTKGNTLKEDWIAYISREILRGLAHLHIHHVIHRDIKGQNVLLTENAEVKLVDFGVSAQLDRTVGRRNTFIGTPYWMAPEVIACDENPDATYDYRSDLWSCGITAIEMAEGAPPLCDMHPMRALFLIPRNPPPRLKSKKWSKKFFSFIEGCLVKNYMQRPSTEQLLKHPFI
experimental.protocol: MAP4K4 kinase activity, CisBio HTRF Transcreener ADP assay
Assay type: biochemical
experimental.context: IC50 category; ATP at Km (10 μM), 0.5 nM kinase domain, 2 h; read-out: MAP4K4

Before answering, review these 8 worked examples.
{"columns": ["compound", "IC50"],
 "data": [
  ["CC(C)(N)COc1ccc(-c2cn(-c3cccnc3)c3nc[nH]c(=O)c23)cc1", "100 to 1000 nM"],
  ["CC(C)(O)CCOc1ccc(-c2cn(-c3cccnc3)c3nc[nH]c(=O)c23)cc1C#N", "≤ 100 nM"],
  ["COC(COc1ccc(-c2cn(-c3cccnc3)c3nc[nH]c(=O)c23)cc1)CN1CCOCC1 (stereo not drawn)", "≤ 100 nM"],
  ["O=c1[nH]cnc2c1c(-c1ccc(OCCCN3CCOCC3)cc1)cn2-c1cccnc1", "≤ 100 nM"],
  ["O=c1[nH]cnc2c(-c3ccncc3)cn(-c3ccccc3)c12", "100 to 1000 nM"],
  ["O=c1[nH]cnc2c(-c3cccc4cn[nH]c34)cn(-c3ccccc3)c12", "100 to 1000 nM"],
  ["O=c1[nH]cnc2c1c(-c1cnn(C3COC3)c1)cn2-c1ccccc1", "≤ 100 nM"],
  ["CC(C)(O)C(O)COc1ccc(-c2cn(-c3cccnc3)c3nc[nH]c(=O)c23)cc1 (stereo not drawn)", "≤ 100 nM"]
]}

Task item: # lookup: IC50 of O=c1[nH]cnc2c1c(-c1ccc(O[C@@H]3CO[C@@H]4[C@H]3OC[C@@H]4O)cc1)cn2-c1cccnc1
Reply: ≤ 100 nM

Task item: Check O=c1[nH]cnc2c1c(-c1ccncc1)cn2-c1ccccc1 too.
Reply: ≤ 100 nM

Task item: Check CC(=O)N1CC(n2cc(-c3cn(-c4ccc(F)cc4)c4nc[nH]c(=O)c34)cn2)C1 too.
Reply: 100 to 1000 nM

###

assay.system: human MAP4K4 kinase domain (Homo sapiens, UniProt O95819)
Construct: 0.5 nM human MAP4K4 kinase domain (Invitrogen); purchased Invitrogen
experimental.protocol: MAP4K4 kinase activity, CisBio HTRF Transcreener ADP assay
Type: biochemical
experimental.context: IC50 category; ATP at Km (10 μM), 0.5 nM kinase domain, 2 h; read-out: MAP4K4
pIC50: −log10 of the molar value.
quantity.kind: pIC50

Task item: Which pIC50 is reported with human MAP4K4 kinase domain (Homo sapiens, UniProt O95819) for this entry: O=c1[nH]cnc2c(-c3cccnc3)cn(-c3ccccc3)c12 ?
Reply: 6.00 to 7.00

Task item: Check COCCn1cc(-c2cn(-c3cccc(F)c3)c3nc[nH]c(=O)c23)cn1 too.
Reply: ≥ 7.00

Task item: Check CN(CCO)c1ccc(-c2cn(-c3ccccc3)c3nc[nH]c(=O)c23)cn1 too.
Reply: ≥ 7.00

Task item: Check COC(=O)Cn1cc(-c2cn(-c3ccccc3)c3nc[nH]c(=O)c23)cn1 too.
Reply: ≥ 7.00

Task item: Check COCCNc1ccc(-c2cn(-c3cccnc3)c3nc[nH]c(=O)c23)cn1 too.
Reply: 6.00 to 7.00

Task item: Check O=c1[nH]cnc2c1c(-c1cnn(CCO)c1)cn2-c1ccc(F)cc1 too.
Reply: 6.00 to 7.00

###

assay.system: MLK3/MAP3K11 (Homo sapiens)
Sequence (Q16584 whole entry): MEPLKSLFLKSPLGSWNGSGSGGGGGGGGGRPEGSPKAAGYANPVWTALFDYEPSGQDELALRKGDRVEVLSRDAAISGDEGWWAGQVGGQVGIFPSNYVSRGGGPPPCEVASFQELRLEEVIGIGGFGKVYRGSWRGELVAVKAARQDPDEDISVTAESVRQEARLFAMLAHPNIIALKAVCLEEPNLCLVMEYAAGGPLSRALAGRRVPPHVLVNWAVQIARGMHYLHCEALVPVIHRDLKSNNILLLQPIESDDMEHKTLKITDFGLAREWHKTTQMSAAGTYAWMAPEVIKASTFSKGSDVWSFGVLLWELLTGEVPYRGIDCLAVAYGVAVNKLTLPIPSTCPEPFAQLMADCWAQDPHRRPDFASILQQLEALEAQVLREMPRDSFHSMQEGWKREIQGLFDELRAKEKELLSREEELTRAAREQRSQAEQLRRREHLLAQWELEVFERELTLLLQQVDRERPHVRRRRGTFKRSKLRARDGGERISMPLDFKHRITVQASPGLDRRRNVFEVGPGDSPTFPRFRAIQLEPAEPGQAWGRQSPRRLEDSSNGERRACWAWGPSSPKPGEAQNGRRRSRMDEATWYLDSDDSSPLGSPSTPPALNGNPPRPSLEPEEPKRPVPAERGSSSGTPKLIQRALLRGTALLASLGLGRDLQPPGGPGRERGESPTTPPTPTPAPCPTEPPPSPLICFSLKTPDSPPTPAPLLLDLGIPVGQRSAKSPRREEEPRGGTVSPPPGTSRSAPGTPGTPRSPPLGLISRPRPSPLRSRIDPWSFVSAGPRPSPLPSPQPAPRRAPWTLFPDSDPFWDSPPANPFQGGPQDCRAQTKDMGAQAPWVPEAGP
experimental.protocol: Kinase selectivity panel, MLK3/MAP3K11
Format: biochemical
experimental.context: read-out: pIC50 MLK3/MAP3K11 (converted)
Please note: IC50 exactly at 0.3 µM is rule not met. Only values below 0.3 µM get rule met.

Would you please look over these solved cases?
{"columns": ["molecule", "assay.system", "qualitative.label"],
 "data": [
  ["COCCOc1ccc(-c2cn(-c3cccnc3)c3nc[nH]c(=O)c23)cc1", "MLK3/MAP3K11 (Homo sapiens)", "rule not met"],
  ["CC(C)(O)CCOc1ccc(-c2cn(-c3cccnc3)c3nc[nH]c(=O)c23)cc1", "MLK3/MAP3K11 (Homo sapiens)", "rule met"],
  ["O=c1[nH]cnc2c1c(-c1cnn(C3COC3)c1)cn2-c1ccccc1", "MLK3/MAP3K11 (Homo sapiens)", "rule met"],
  ["O=c1[nH]cnc2c1c(-c1cnn(CCO)c1)cn2-c1ccccc1", "MLK3/MAP3K11 (Homo sapiens)", "rule met"],
  ["COCCOc1ccc(-c2cn(-c3ccncc3)c3nc[nH]c(=O)c23)cc1", "MLK3/MAP3K11 (Homo sapiens)", "rule not met"]
]}

Task item: IC50 under 0.3 µM? Item: O=c1[nH]cnc2c1c(-c1ccc(OCC(O)CN3CCOCC3)cc1)cn2-c1cccnc1 (stereo not shown)
Reply: rule not met

Task item: Check COCCOc1ccc(-c2cn(-c3cccc(F)c3)c3nc[nH]c(=O)c23)cn1 too.
Reply: rule not met

Hey, just so you know, these numbers are from patent US12247045B2.
